experimentalTarget: CDK9/Cyclin T1 complex (Homo sapiens)
Sequence (P50750 whole entry, species assumed): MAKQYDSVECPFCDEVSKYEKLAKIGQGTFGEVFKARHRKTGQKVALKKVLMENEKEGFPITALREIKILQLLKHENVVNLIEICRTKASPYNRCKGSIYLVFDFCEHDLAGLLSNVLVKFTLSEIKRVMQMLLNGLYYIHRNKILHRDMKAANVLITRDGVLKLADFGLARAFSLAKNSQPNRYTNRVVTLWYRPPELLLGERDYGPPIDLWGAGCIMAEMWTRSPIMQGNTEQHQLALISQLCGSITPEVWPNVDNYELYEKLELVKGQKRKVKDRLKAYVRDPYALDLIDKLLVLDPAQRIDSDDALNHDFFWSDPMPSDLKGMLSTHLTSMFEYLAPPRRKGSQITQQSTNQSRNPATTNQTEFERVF
Sequence (O60563 whole entry partner, species assumed): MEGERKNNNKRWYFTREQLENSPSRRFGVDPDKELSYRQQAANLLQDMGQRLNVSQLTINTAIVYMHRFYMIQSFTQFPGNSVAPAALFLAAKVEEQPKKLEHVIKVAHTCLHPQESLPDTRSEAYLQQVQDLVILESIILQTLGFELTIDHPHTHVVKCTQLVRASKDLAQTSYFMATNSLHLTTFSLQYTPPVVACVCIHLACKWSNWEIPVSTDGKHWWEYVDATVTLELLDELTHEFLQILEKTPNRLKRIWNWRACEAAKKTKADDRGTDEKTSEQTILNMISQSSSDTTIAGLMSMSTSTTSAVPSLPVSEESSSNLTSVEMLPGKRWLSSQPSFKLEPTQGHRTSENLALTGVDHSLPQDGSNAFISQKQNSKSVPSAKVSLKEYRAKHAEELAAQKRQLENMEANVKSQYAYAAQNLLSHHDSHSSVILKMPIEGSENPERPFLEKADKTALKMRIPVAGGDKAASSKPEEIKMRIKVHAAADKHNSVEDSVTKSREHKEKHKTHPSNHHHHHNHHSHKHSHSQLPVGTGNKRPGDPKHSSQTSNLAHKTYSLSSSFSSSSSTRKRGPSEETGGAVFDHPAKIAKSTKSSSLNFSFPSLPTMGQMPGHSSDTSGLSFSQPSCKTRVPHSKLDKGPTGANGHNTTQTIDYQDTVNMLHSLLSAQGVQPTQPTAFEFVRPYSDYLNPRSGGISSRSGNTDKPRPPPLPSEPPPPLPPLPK
measurementProtocol: CDK9 inhibition assay (Caliper/LabChip EZ Reader kinase assay)
Assay type: biochemical
experimentalSetup: Table 1; CDK9/Cyclin T1 8 nM, ATP 2 mM, 15 min at 27° C.
pIC50: −log10 of the molar value.
The compounds listed here are annotated with their pIC50.

These recorded examples may help you get a feel for the data.
>>> measuredresult("O=C1CCN(C(=O)c2ccc3c(-c4nc(N[C@H]5CCCNC5)ncc4C(F)(F)F)c[nH]c3c2)C1 [Compound 302]")
"5.30 to 6.70"
>>> measuredresult("CC1(O)CCC(c2cccc3c(-c4nc(N[C@H]5CCCNC5)ncc4C(F)(F)F)c[nH]c23)CC1 (single isomer, unassigned) [Compound 193]")
"5.30 to 6.70"

Now look at this entry.
// lookup pIC50 for CC[C@@H]1CC[C@H](Nc2ncc(C(F)(F)F)c(-c3c[nH]c4ccccc34)n2)CN1 [Compound 211]
5.30 to 6.70
